Tested on: human liver cancer cell SMMC-7721
Assay: MTT anticancer assay, SMMC-7721
Type: cell-based
Details: 48 h exposure, mean ± SD
Hi! Just check whether IC50 is below 10 µM. Below gives MET, equal or above gives NOT MET.

The following compounds have reported results that may help.
INSERT INTO assay_data (compound, classification) VALUES
  ('COc1cc(OC)c2c(=O)c(OCCCCN3CCN(C(=O)c4cccc(F)c4)CC3)c(-c3cc(OC)c(OC)c(OC)c3)oc2c1', 'NOT MET'),
  ('COc1cc(OC)c2c(=O)c(OCCCCN3CCN(C(=O)c4ccc(C(F)(F)F)cc4)CC3)c(-c3cc(OC)c(OC)c(OC)c3)oc2c1', 'NOT MET'),
  ('COc1cc(OC)c2c(=O)c(OCCCCN3CCN(C(=O)c4ccncc4)CC3)c(-c3cc(OC)c(OC)c(OC)c3)oc2c1', 'MET'),
  ('COc1cc(OC)c2c(=O)c(OCCCCN3CCN(C(=O)c4c(F)cccc4F)CC3)c(-c3cc(OC)c(OC)c(OC)c3)oc2c1', 'NOT MET');

Could you please tell me whether IC50 recorded for COc1cccc2c1C(=O)c1c(O)c3c(c(O)c1C2=O)C[C@@](O)(C(=O)CO)C[C@@H]3O[C@H]1C[C@H](N)[C@H](O)[C@H](C)O1 [ADM, doxorubicin, reference compound] is less than 10 µM? MET

Field: below-cutoff. Rule: recorded IC50 strictly less than 10 µM. Subject: COc1cc(OC)c2c(=O)c(OCCCCN3CCN(C(=O)c4cc(Cl)ccc4[N+](=O)[O-])CC3)c(-c3cc(OC)c(OC)c(OC)c3)oc2c1 MET

Given the entry COc1cc(OC)c2c(=O)c(OCCCCN3CCN(C(=O)c4ccc(F)cc4F)CC3)c(-c3cc(OC)c(OC)c(OC)c3)oc2c1 , would its reported IC50 be below 10 µM? NOT MET

Is IC50 of COc1cc(OC)c2c(=O)c(OCCCCN3CCN(C(=O)c4ccccc4)CC3)c(-c3cc(OC)c(OC)c(OC)c3)oc2c1 strictly below 10 µM? MET

For this compound, is IC50 lower than 10 µM? COc1cc(OC)c2c(=O)c(OCCCCN3CCN(C(=O)c4cc([N+](=O)[O-])cc([N+](=O)[O-])c4)CC3)c(-c3cc(OC)c(OC)c(OC)c3)oc2c1 MET

A record lists COc1cc(OC)c2c(=O)c(OCCCCN3CCN(C(=O)c4ccc([N+](=O)[O-])cc4)CC3)c(-c3cc(OC)c(OC)c(OC)c3)oc2c1 . Is its IC50 below 10 µM? NOT MET

Quick check: IC50 of COc1cc(OC)c2c(=O)c(OCCCCN3CCN(C(=O)c4ccccc4[N+](=O)[O-])CC3)c(-c3cc(OC)c(OC)c(OC)c3)oc2c1 under 10 µM? NOT MET

Bench note: check whether COc1cc(OC)c2c(=O)c(OCCCCN3CCN(C(=O)c4c(F)cccc4Cl)CC3)c(-c3cc(OC)c(OC)c(OC)c3)oc2c1 shows IC50 below 10 µM NOT MET

Threshold test, IC50 < 10 µM: COc1cc(OC)c2c(=O)c(OCCCCN3CCN(C(=O)c4ccc(Cl)cc4)CC3)c(-c3cc(OC)c(OC)c(OC)c3)oc2c1 NOT MET
